The values you see were collected from the Human Domainome abundance scans (Beltran et al. 2025).

B1: POU domain, class 4, transcription factor 3, residues 185 to 256; numbered along this chain, Q15319 (parent)
chain: RELEAFAERFKQRRIKLGVTQADVGAALANLKIPGVGSLSQSTICRFESLTLSHNNMIALKPVLQAWLEEAE

Variants of: B1
Test: abundance fitness (aPCA) (normalised: wild type 0, dead -1); higher = more abundant; growth selection in yeast, the domain comes from the species named
Details: Homo sapiens
Listing: abundance fitness of selected variants
Readout: abundance fitness

Mutation Notation | Data Value
C45F | -0.001
G37A | -0.127
L28S | -0.688
L50R | 0.053
S38P | 0.055
G25E | -0.054
